Recorded TGI values for a group of compounds are listed next.
system: A498 renal; assay: NCI tumour cell line growth inhibition, 48 h

# compound, TGI
measured = [
    ("O=[P+](O)c1ccccn1", "> 100 µM"),
]

Prompt: Reported TGI for CCC(=O)NI1OC(=O)c2ccccc21 : what is it?
Completion: > 100 µM

Prompt: Reported TGI for C=C1c2ccccc2C(=O)c2c1c1c(C(=O)OC)c(OC(=O)OCc3ccc([N+](=O)[O-])cc3)ccc1n2Cc1ccccc1 : what is it?
Completion: > 100 µM

Prompt: Reported TGI for COc1ccc2c(c1)CC1COc3cc(OC)ccc3C1O2 (stereo unspecified) : what is it?
Completion: > 100 µM

Prompt: Reported TGI for COC(=O)CCC1=NCC(C)(C)O1 : what is it?
Completion: > 10 µM

Prompt: Reported TGI for COC(=O)[C@H](Cc1ccccc1)NC(=O)N(CCC#N)CCCCN(CCC#N)C(=O)N[C@@H](Cc1ccccc1)C(=O)OC : what is it?
Completion: > 100 µM

---

system: HCT-15 colon; assay: NCI tumour cell line growth inhibition, 48 h
Recorded TGI values for a group of compounds are listed next.

# compound, val
records = [
    ("CNC(=O)c1cc(Oc2cccc3nc(NC(=O)Nc4cc(C(F)(F)F)cc(C(F)(F)F)c4)ccc23)ccn1", "> 100 µM"),
    ("O=C1c2c(ccc3c2CCC3)CC1Cc1ccc2c(c1)CCC2 (stereo not drawn)", "> 100 µM"),
]

Please turn your attention to the following entry.
Prompt: Reported TGI for CNCCCNC(=S)Cn1cc(C)c(=O)[nH]c1=O : what is it?
Completion: > 100 µM

---

Recorded TGI values for a group of compounds are listed next.
tested on: OVCAR-8 ovarian; assay: NCI tumour cell line growth inhibition, 48 h

A selection of reference data follows.
# compound, TGI
rows = [
    ("O=C1c2c(ccc3c2CCC3)CC1Cc1ccc2c(c1)CCC2 (stereo not drawn)", "> 100 µM"),
    ("O=[P+](O)c1ccccn1", "> 100 µM"),
    ("CC1=C(C(=O)NCc2ccccc2)C(c2ccc(Cl)c(Cl)c2)C(C(=O)NCc2ccccc2)=C(C)N1", "> 100 µM"),
    ("CCOc1ccccc1NC(=O)C(=O)C(/C(=N/N)C(=O)OC)c1nc2ccc([N+](=O)[O-])cc2[nH]c1=O (stereo not drawn)", "> 100 µM"),
    ("COc1ccc(/C=C2\\C[C@H]3[C@@H]4CC=C5C[C@@H](OC(C)=O)CC[C@]5(C)[C@H]4CC[C@]3(C)\\C2=N\\O)cc1OC", "> 100 µM"),
]

Prompt: Item: COc1ccc2c(c1)c1c(n2CCN2CCOCC2)-c2cccc(OC)c2CC1 Test system: OVCAR-8 ovarian Read-out: TGI Value: ?
Completion: > 100 µM

Prompt: Item: CNC(=O)c1cc(Oc2cccc3nc(NC(=O)Nc4cc(C(F)(F)F)cc(C(F)(F)F)c4)ccc23)ccn1 Test system: OVCAR-8 ovarian Read-out: TGI Value: ?
Completion: 26.8 µM

Prompt: Item: CN(C)CCC(/C=C/c1ccccc1)=N\Nc1ccc(Cl)c(Cl)c1 Test system: OVCAR-8 ovarian Read-out: TGI Value: ?
Completion: 7.8 µM

---

system: HOP-92 NSCLC; assay: NCI tumour cell line growth inhibition, 48 h
endpoint: TGI

A selection of reference data follows.
# molecule, TGI
rows = [
    ("C1OC1CN1CCN(CC2CO2)CC1 (centres undefined)", "> 100 µM"),
    ("CCOC(=O)C(Cc1c[nH]c2cc(N(CCO)CCO)ccc12)(NC(C)=O)C(=O)OCC", "> 1000 µM"),
    ("O=C1c2c(Br)sc(Br)c2[C@@H](Cl)[C@H]1Cl", "42.5 µM"),
]

Prompt: Reported TGI for CC(C)(C)OP(=O)(OC(C)(C)C)C(O)c1ccc(/C=C(\C#N)C(N)=O)cc1 (centres undefined) : what is it?
Completion: > 100 µM

Prompt: Reported TGI for COc1ccc2c(c1)CC1COc3cc(OC)ccc3C1O2 (centres undefined) : what is it?
Completion: > 100 µM

Prompt: Reported TGI for NCCCOc1cc2ccccc2cc1C(=O)Nc1ccc(Cl)cc1OC(=O)c1cc2ccccc2cc1OCCCN : what is it?
Completion: 3.71 µM

Prompt: Reported TGI for CN(CCO)Cc1ncccc1O : what is it?
Completion: > 100 µM

Prompt: Reported TGI for COC(=O)[C@H](Cc1ccccc1)NC(=O)N(CCC#N)CCCCN(CCC#N)C(=O)N[C@@H](Cc1ccccc1)C(=O)OC : what is it?
Completion: > 100 µM

Prompt: Reported TGI for O=C1C(=C2CCCC2)CCC1CN1CCCCC1 (centres undefined) : what is it?
Completion: 37.7 µM

---

test system: SK-MEL-5 melanoma; assay: NCI tumour cell line growth inhibition, 48 h; in the data active = GI50 below about 0.43 µM; inactive = the rest
Response enum: active, inactive

Solved cases (5 shown):
# item-smiles, label
rows = [
    ("Cc1ccc(C(=O)c2sc3nc4c(cc3c2N)CCCC4)c(C)c1", "active"),
    ("COc1cccc(-c2nn(-c3ccccc3)cc2-c2ccnc(NCCCNC(=O)c3cccc(C(F)(F)F)c3)c2)c1", "inactive"),
    ("O=[N+]([O-])c1cccc(-c2nc(-c3ccc(Cl)cc3Cl)cn2-c2ccccc2)c1", "inactive"),
    ("Cc1c(Cl)c(=O)oc2cc(OC/C=C3\\CCC(=O)O3)ccc12", "inactive"),
    ("COc1ccc(/C(C)=N/NC(=O)CSc2nc3ccccc3c(=O)n2CCc2ccc(S(N)(=O)=O)cc2)cc1", "inactive"),
]

Below: the item to evaluate.
Prompt: Each molecule tested received a call. Report the one for NCCCCCNc1noc(Cc2c[nH]c3cc(Br)ccc23)n1 .
Completion: inactive

---

tested on: HT29 colon; test: NCI tumour cell line growth inhibition, 48 h
Recorded TGI values for a group of compounds are listed next.
The answer is to be given in µM; state only the numeric part.

A selection of reference data follows.
# item-smiles, endpoint, val
measured = [
    ("CCCCCCCCCCCCCCCCCCNCc1ccc(Cl)cc1", "TGI", 3.46),
    ("Cc1ccc(Nc2cc(Cl)c([N+](=O)[O-])cc2[N+](=O)[O-])cc1", "TGI", 8.07),
]

Please turn your attention to the following entry.
Prompt: Item: N#Cc1ccc(-c2c(-c3ncn[nH]3)sc(N3CCOCC3)c2C#N)c(F)c1 Test system: HT29 colon Read-out: TGI Value: ?
Completion: 18.3

---

system: A498 renal; test: NCI tumour cell line growth inhibition, 48 h
endpoint: GI50

A selection of reference data follows.
# compound, GI50
data = [
    ("Nc1ccccc1C#C/C=C\\C#CC#C/C=C\\C#Cc1ccccc1N", "5.36 µM"),
    ("Nc1c(C(=O)Nc2ccccn2)sc2nc3c(cc12)C(O)CCC3 (stereo unspecified)", "1.53 µM"),
    ("NCCCCCNc1noc(Cc2c[nH]c3cc(Br)ccc23)n1", "1.76 µM"),
    ("CC(C)(C)OC(=O)NCCCCn1c2c(c3ccccc3c1=O)C(=O)c1ccccc1-2", "23.4 µM"),
]

Prompt: Item: Cc1ccc(C(=O)NCCCOc2ccc(N3C(N)=NC(N)=NC3(C)C)cc2Cl)cc1S(=O)(=O)F Test system: A498 renal Read-out: GI50 Value: ?
Completion: > 100 µM

Prompt: Item: C=C1c2ccccc2C(=O)c2c1c1c(C(=O)OC)c(OC(=O)OCc3ccc([N+](=O)[O-])cc3)ccc1n2Cc1ccccc1 Test system: A498 renal Read-out: GI50 Value: ?
Completion: 65.5 µM

---

Recorded TGI values for a group of compounds are listed next.
tested on: IGROV1 ovarian; assay: NCI tumour cell line growth inhibition, 48 h
*1 amine or outer side, *2 acyl side, *3 side chain or, on linkers, in order; H or OH if unused. Where a SMILES comes first, the peptide text is derived from it. [ ]: non-standard residue; d: D form. The star is where a group is joined. ξ: configuration not given here. NMeY = CN[C@@H](Cc1ccc(O)cc1)C(=O)O; Ethylenediamine = C(CN[*:2])N[*:1]; ξNMeL = CNC(CC(C)C)C(=O)O; Cbz = O=C(OCc1ccccc1)*; Lac = C[C@H](O)C(=O)O; ξA = CC(N)C(=O)O

A selection of reference data follows.
# compound, system, TGI
measured = [
    ("COc1ccc(C[C@@H](C(=O)NCCNC(=O)C(CC(C)C)N(C)C(=O)[C@@H]2CCCN2C(=O)[C@H](C)O)N(C)C(=O)[C@@H]2CCCN2C(=O)[C@H](CC(C)C)NC(=O)C(C)NC(=O)OCc2ccccc2)cc1 (some centres undefined) (Cbz-[ξA]LP[NMeY](Me)-{Ethylenediamine-ξNMeL-Pro-Lac})", "IGROV1 ovarian", "> 100 µM"),
    ("N#Cc1cc2c(cc1C#N)/C(=N\\c1cccc(N)n1)N=C2Nc1cccc(N)n1", "IGROV1 ovarian", "> 100 µM"),
    ("CC[C@@]1(OC(=O)CN(C)C)C(=O)OCc2c1cc1n(c2=O)Cc2cc3c(N)cccc3nc2-1", "IGROV1 ovarian", "0.421 µM"),
]

Please turn your attention to the following entry.
Prompt: Reported TGI for COc1cc(-n2cc(-c3ccccc3)[nH]c2=O)cc(OC)c1OC : what is it?
Completion: > 100 µM
